Hello, the source for this data is ChEMBL document CHEMBL4385605, in case you need it.

Species: Sus scrofa
experiment: Displacement of [3H]-(+)-MK-801 from PCP binding site of NMDA receptor in pig brain cortex membranes up to 1 uM after 120 mins by scintillation counting analysis
Format: cell membranes
Active and inactive are the calls of the source. The calls are words filed in the database; no cut-off is given here.
experimental endpoint: Activity

molecule	value reported
COC1Cc2ccccc2[C@]2(CC[C@@H](NCc3ccccc3)CC2)O1 (stereo partly drawn)	inactive
COC1Cc2ccccc2[C@]2(CC[C@@H](N(C)Cc3ccccc3)CC2)O1 (stereo partly drawn)	inactive
COC1Cc2ccccc2[C@]2(CC[C@H](NCc3ccccc3)CC2)O1 (stereo partly drawn)	inactive

----------
system tested: Sigma intracellular receptor 2 (Rattus norvegicus, UniProt Q5U3Y7)
Sequence (Q5U3Y7 whole entry): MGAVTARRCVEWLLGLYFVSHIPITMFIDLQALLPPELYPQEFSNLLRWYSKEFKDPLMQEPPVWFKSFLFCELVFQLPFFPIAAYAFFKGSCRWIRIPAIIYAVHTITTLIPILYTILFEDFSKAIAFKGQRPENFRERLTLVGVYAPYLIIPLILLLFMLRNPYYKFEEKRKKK
experiment: Displacement of [3H]-di-o-tolylguanidine from sigma2 receptor in rat liver membranes incubated for 120 mins in the presence of sigma1 receptor ligand (+)-pentazocine by scintillation counting method
experimental endpoint: pKi
Reminder that pKi is minus the log10 of a molar concentration.

Check out these entries, answers already filled in.
molecule	pKi
C1=Cc2ccccc2[C@]2(CC[C@@H](NCC3CCCCC3)CC2)O1	7.28
COC1Cc2ccccc2[C@]2(CC[C@@H](N(C)CC3CCCCC3)CC2)O1 (stereo partly drawn)	6.81
COC1O[C@]2(CC[C@@H](N(C)CC3CCCCC3)CC2)c2ccccc21 (stereo partly drawn)	7.15
CCOC1Cc2ccccc2[C@]2(CC[C@@H](N(C)CC3CCCCC3)CC2)O1 (stereo partly drawn)	6.44
CN(CC1CCCCC1)[C@H]1CC[C@@]2(CC1)OC=Cc1ccccc12	7.09
CN(CC1CCCCC1)[C@H]1CC[C@]2(CC1)OCCc1ccccc12	7.52

Which pKi reading was recorded for the molecule CCOC1Cc2ccccc2[C@]2(CC[C@H](N(C)CC3CCCCC3)CC2)O1 (stereo partly drawn) ?
7.38

Would you kindly repeat that for CN(CC1CCCCC1)[C@H]1CC[C@]2(CC1)OC=Cc1ccccc12 ?
7.48
